The reader will find reported MIC values listed item by item below.
Test system: Helicobacter pylori
Test: Antibacterial activity determined as minimal inhibitory concentration (MIC) against Helicobacter pylori HIH 27606
Format: functional
Respond numerically; units are µg/mL and should not be typed.

Ask | Consider the compound shown here: O=C(O)c1cn(C2CC2)c2cc(N3CCN(CC(P(=O)(O)O)P(=O)(O)O)CC3)c(F)cc2c1=O What is its recorded MIC?
Reply | 0.78

Ask | What do you get for O=C(O)c1cn(C2CC2)c2cc(N3CCN(C(P(=O)(O)O)P(=O)(O)O)CC3)c(F)cc2c1=O ?
Reply | 12.5

Ask | What do you get for CCOP(=O)(OCC)C(N1CCN(c2cc3c(cc2F)c(=O)c(C(=O)O)cn3C2CC2)CC1)P(=O)(OCC)OCC ?
Reply | 25

====

System: Pseudomonas aeruginosa
Assay: Antibacterial activity determined as minimal inhibitory concentration (MIC) against Pseudomonas aeruginosa ATCC 27853
Assay type: functional
Readout Type: MIC (µg/mL)
Respond numerically; units are µg/mL and should not be typed.

Below, each entry is followed by its recorded MIC result.
* CCOP(=O)(OCC)C(CN1CCN(c2cc3c(cc2F)c(=O)c(C(=O)O)cn3C2CC2)CC1)P(=O)(OCC)OCC | 3.12
* O=C(O)c1cn(C2CC2)c2cc(N3CCN(CC(P(=O)(O)O)P(=O)(O)O)CC3)c(F)cc2c1=O | 25
* O=C(O)c1cn(C2CC2)c2cc(N3CCN(C(P(=O)(O)O)P(=O)(O)O)CC3)c(F)cc2c1=O | 25

Ask | Enter reported MIC observed with Pseudomonas aeruginosa for O=C(O)c1cn(C2CC2)c2cc(N3CCNCC3)c(F)cc2c1=O
Reply | 3.12

====

The reader will find reported MIC values listed item by item below.
Test system: Staphylococcus epidermidis
Experiment: Antibacterial activity determined as minimal inhibitory concentration (MIC) against Staphylococcus epidermidis ATCC 110001
Type: functional
Respond numerically; units are µg/mL and should not be typed.

Below, each entry is followed by its recorded MIC result.
* CCOP(=O)(OCC)C(N1CCN(c2cc3c(cc2F)c(=O)c(C(=O)O)cn3C2CC2)CC1)P(=O)(OCC)OCC | 6.25
* O=C(O)c1cn(C2CC2)c2cc(N3CCNCC3)c(F)cc2c1=O [CIPROFLOXACIN] | 0.78
* CCOP(=O)(OCC)C(CN1CCN(c2cc3c(cc2F)c(=O)c(C(=O)O)cn3C2CC2)CC1)P(=O)(OCC)OCC | 0.78

Ask | Consider the molecule shown here: O=C(O)c1cn(C2CC2)c2cc(N3CCN(C(P(=O)(O)O)P(=O)(O)O)CC3)c(F)cc2c1=O What is its recorded MIC?
Reply | 25

Ask | What do you get for O=C(O)c1cn(C2CC2)c2cc(N3CCN(CC(P(=O)(O)O)P(=O)(O)O)CC3)c(F)cc2c1=O ?
Reply | 25

====

The reader will find reported MIC values listed item by item below.
System: Helicobacter pylori
Assay: Antibacterial activity determined as minimal inhibitory concentration (MIC) against Helicobacter pylori HIH 27604
Assay type: functional
Respond numerically; units are µg/mL and should not be typed.

Below, each entry is followed by its recorded MIC result.
• O=C(O)c1cn(C2CC2)c2cc(N3CCNCC3)c(F)cc2c1=O [CIPROFLOXACIN] = 0.78
• CCOP(=O)(OCC)C(CN1CCN(c2cc3c(cc2F)c(=O)c(C(=O)O)cn3C2CC2)CC1)P(=O)(OCC)OCC = 0.78
• CCOP(=O)(OCC)C(N1CCN(c2cc3c(cc2F)c(=O)c(C(=O)O)cn3C2CC2)CC1)P(=O)(OCC)OCC = 25
• O=C(O)c1cn(C2CC2)c2cc(N3CCN(C(P(=O)(O)O)P(=O)(O)O)CC3)c(F)cc2c1=O = 12.5

Then this compound:
Ask | Consider the compound shown here: O=C(O)c1cn(C2CC2)c2cc(N3CCN(CC(P(=O)(O)O)P(=O)(O)O)CC3)c(F)cc2c1=O What is its recorded MIC?
Reply | 3.12
